experimental_system: T1, serum purified human Complement Factor D (human, UniProt P00746 26-253)
T1 construct: Serum purified protein flowed over the captured antibodies; also called CFD; human CFD
T1 sequence (P00746 26-253): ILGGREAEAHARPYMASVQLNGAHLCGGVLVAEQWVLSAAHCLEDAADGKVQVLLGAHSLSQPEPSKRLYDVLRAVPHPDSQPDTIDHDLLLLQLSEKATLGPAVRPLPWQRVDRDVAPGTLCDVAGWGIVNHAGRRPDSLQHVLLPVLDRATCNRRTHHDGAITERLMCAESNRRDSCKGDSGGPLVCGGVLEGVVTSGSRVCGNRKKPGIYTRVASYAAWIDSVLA
test_method_notes: SPR Biacore, antibody on protein A chip, single cycle kinetics, 25 C;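 note: antibodies captured to roughly 70 RU on the protein A surface in HBS-EP+ running buffer, with kinetic constants derived by BIAevaluation fitting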
readout_label: koff (s⁻¹)
Could you give me the number in s⁻¹? Just the number is fine.

Challenge: May I ask what koff has been recorded for 54V59D / 54R101V (antibody, V domains shown, KCD119 TAF variant) VH: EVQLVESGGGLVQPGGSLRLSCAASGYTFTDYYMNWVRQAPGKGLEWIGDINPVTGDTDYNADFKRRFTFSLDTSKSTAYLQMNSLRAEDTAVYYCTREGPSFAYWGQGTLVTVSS VL: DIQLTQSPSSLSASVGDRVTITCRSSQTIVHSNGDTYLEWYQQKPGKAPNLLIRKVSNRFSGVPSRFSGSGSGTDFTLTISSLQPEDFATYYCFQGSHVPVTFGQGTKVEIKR ?
Response given: 0.000141

Challenge: May I ask what koff has been recorded for 54V59D / 34D60W101V (antibody, V domains shown, KCD119 TAF variant; full antibody captured on protein A) VH: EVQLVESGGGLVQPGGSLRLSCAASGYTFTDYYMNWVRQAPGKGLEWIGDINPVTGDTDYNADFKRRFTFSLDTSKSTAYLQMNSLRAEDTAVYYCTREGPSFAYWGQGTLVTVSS VL: DIQLTQSPSSLSASVGDRVTITCRSSQTIVHSNDDTYLEWYQQKPGKAPNLLIYKVSNRWSGVPSRFSGSGSGTDFTLTISSLQPEDFATYYCFQGSHVPVTFGQGTKVEIK ?
Response given: 0.000187

Challenge: May I ask what koff has been recorded for 54I59D / 50I60W101V (antibody, V domains shown, KCD119 TAF variant; full antibody captured on protein A) VH: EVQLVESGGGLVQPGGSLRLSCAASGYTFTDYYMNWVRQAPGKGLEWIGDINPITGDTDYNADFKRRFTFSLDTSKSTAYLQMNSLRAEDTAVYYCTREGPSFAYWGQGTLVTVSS VL: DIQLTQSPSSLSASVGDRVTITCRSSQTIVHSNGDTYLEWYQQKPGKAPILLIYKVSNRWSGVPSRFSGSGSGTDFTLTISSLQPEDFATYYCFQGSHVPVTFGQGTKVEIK ?
Response given: 6.67e-05

Challenge: May I ask what koff has been recorded for 31S54I59D84S / 54R101V (antibody, V domains shown, also called 31554159D845 / 54R101V) VH: EVQLVESGGGLVQPGGSLRLSCAASGYTFTSYYMNWVRQAPGKGLEWIGDINPITGDTDYNADFKRRFTFSLDTSKSTAYLQMSSLRAEDTAVYYCTREGPSFAYWGQGTLVTVSS VL: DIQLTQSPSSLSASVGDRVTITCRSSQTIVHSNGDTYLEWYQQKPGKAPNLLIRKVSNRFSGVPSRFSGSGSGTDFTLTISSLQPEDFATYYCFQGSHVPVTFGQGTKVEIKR ?
Response given: 9.14e-05

Challenge: May I ask what koff has been recorded for 31S54I59D84S / 32W60W101V (antibody, V domains shown, Label printed 31S54I59D845, read as 84S; full antibody captured on protein A; also called 31S54I59D845 / 32W60W101V) VH: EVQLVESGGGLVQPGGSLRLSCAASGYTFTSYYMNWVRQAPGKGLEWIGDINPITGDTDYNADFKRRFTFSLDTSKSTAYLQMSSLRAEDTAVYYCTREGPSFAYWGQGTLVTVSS VL: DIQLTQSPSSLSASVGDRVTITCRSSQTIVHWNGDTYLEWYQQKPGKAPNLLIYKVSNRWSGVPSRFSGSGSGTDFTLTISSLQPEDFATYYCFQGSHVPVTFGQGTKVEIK ?
Response given: 7.76e-05

Challenge: May I ask what koff has been recorded for 34I54I59D84S / 54G101V (antibody, V domains shown, also called 34I54I59D845 / 54G101V) VH: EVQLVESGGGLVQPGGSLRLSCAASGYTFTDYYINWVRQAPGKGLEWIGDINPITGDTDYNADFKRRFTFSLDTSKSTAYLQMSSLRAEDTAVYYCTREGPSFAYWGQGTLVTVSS VL: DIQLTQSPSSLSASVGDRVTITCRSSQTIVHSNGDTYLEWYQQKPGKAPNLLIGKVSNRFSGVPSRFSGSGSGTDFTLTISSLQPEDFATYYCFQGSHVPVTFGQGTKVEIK ?
Response given: 5.18e-05

Challenge: May I ask what koff has been recorded for 54V / 101V (antibody, V domains shown, KCD119 TAF variant; full antibody captured on protein A) VH: EVQLVESGGGLVQPGGSLRLSCAASGYTFTDYYMNWVRQAPGKGLEWIGDINPVTGDTSYNADFKRRFTFSLDTSKSTAYLQMNSLRAEDTAVYYCTREGPSFAYWGQGTLVTVSS VL: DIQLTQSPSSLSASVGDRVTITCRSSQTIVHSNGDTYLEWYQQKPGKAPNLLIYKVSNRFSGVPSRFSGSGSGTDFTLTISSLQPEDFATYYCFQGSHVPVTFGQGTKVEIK ?
Response given: 0.000491

Challenge: May I ask what koff has been recorded for 28S31S54V59D / 101V (antibody, V domains shown, KCD119 TAF variant; full antibody captured on protein A) VH: EVQLVESGGGLVQPGGSLRLSCAASGYSFTSYYMNWVRQAPGKGLEWIGDINPVTGDTDYNADFKRRFTFSLDTSKSTAYLQMNSLRAEDTAVYYCTREGPSFAYWGQGTLVTVSS VL: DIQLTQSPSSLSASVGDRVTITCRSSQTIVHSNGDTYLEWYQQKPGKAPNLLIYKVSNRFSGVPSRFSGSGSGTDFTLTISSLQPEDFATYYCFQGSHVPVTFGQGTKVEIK ?
Response given: 0.000166

Challenge: May I ask what koff has been recorded for 54I59D / 54S60W101V (antibody, V domains shown, Light label printed 54560W101V, read as 54S60W101V; also called 54I59D / 54560W101V) VH: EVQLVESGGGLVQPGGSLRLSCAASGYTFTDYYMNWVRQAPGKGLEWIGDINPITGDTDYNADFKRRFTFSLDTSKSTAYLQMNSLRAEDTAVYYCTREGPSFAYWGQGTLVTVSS VL: DIQLTQSPSSLSASVGDRVTITCRSSQTIVHSNGDTYLEWYQQKPGKAPNLLISKVSNRWSGVPSRFSGSGSGTDFTLTISSLQPEDFATYYCFQGSHVPVTFGQGTKVEIK ?
Response given: 7.08e-05

Challenge: May I ask what koff has been recorded for 54V59D / 32W60W101V (antibody, V domains shown, KCD119 TAF variant; full antibody captured on protein A) VH: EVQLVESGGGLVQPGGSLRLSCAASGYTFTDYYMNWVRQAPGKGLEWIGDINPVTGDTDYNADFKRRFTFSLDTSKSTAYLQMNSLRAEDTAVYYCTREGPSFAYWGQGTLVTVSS VL: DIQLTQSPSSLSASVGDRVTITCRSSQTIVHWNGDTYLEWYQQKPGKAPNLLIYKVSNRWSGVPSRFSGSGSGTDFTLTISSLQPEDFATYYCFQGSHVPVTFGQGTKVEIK ?
Response given: 4.79e-05
